The measurements presented in this section are drawn from PubChem BioAssay AID2130.

target: Protein phosphatase methylesterase 1 (Homo sapiens); test: PME-1 inhibitors via competitive probe labeling, primary screen, biochemical, fluorescence polarization, FP-Rh probe, HTS (AID 2130); conditions: recombinant PME-1, FP-Rh probe fluorescence polarization; at 5.9 µM; active compounds read high;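 note: competitive labeling of PME-1 active site by serine hydrolase directed probe; 0% = PME-1 with DMSO and 100% = wells lacking PME-1 enzyme; inhibitors block probe labeling so polarization falls and inhibition rises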
In all, about 320,000 compounds went through this assay and about 1,700 (0.53%) were called active. This excerpt belongs to a sample that is enriched for actives.
OUTCOME_MEASURE: inhibition (%)
Output spec: scalar in %, unitless text.

Below: 2 compounds and their reported inhibition.
| MOL_SMILES | OUTCOME_MEASURE | UNIT_ABBREVIATION | TEST_RESULT |
| --- | --- | --- | --- |
| CCCc1cc(-c2nc(-c3ccc(C)cc3)cs2)ccn1 | inhibition | % | -6.39 |
| CC(=O)Nc1ccc(S(=O)(=O)N2CCC(C(=O)N[C@@H](Cc3ccccc3)C(=O)O)CC2)cc1 | inhibition | % | -6.81 |

Return inhibition (reported value) for this compound: CCN=C1S/C(=C\c2cc(Br)ccc2OCC(=O)OCC)C(=O)N1CC
3.9

----------
Reported inhibition is given for each of the following molecules.
target: Protein phosphatase methylesterase 1 (Homo sapiens) (UniProt Q9Y570); assay: PME-1 inhibitors via competitive probe labeling, primary screen, biochemical, fluorescence polarization, FP-Rh probe, HTS (AID 2130); details: recombinant PME-1, FP-Rh probe fluorescence polarization; at 5.9 µM; active compounds read high;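 note: competitive labeling of PME-1 active site by serine hydrolase directed probe; 0% = PME-1 with DMSO and 100% = wells lacking PME-1 enzyme; inhibitors block probe labeling so polarization falls and inhibition rises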
Sequence (Q9Y570 whole entry, looked up): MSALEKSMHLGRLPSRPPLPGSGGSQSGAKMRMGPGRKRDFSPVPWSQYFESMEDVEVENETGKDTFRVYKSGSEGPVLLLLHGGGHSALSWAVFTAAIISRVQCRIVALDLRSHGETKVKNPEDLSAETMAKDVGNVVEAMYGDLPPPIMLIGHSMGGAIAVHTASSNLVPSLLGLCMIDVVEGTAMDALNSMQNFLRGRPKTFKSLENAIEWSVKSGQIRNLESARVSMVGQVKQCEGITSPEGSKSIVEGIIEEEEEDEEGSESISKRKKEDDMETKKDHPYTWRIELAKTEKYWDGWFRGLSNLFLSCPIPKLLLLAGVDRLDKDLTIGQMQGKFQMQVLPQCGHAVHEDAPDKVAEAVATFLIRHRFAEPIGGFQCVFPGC
Screen size: about 320,000 compounds; about 1,700 (0.53%) were called active. This excerpt belongs to a sample that is enriched for actives.
Note: unit % is implicit; provide only the numeric part.

# return inhibition of O=C(CN1C(=O)NC2(CCCCC2)C1=O)NCCc1c[nH]c2ccccc12 (system: Protein phosphatase methylesterase 1 (Homo sapiens) (UniProt Q9Y570))
1.73

Under Protein phosphatase methylesterase 1 (Homo sapiens) (UniProt Q9Y570): report inhibition of O=C(CNCc1cccs1)Nc1cc(S(=O)(=O)N2CCCC2)ccc1Cl .
22

Under Protein phosphatase methylesterase 1 (Homo sapiens) (UniProt Q9Y570), report inhibition for CC(=O)NC1=NN(C(C)=O)C(C)(c2ccc(Cl)s2)S1 (configuration not stated)
-1.89

Give inhibition for Clc1ccc(Nc2nc(-c3cccs3)cs2)nc1 tested on Protein phosphatase methylesterase 1 (Homo sapiens) (UniProt Q9Y570).
14.9

Determine reported inhibition for COc1cccc(C2Nc3cccc4cccc(c34)N2)c1 ; test system: Protein phosphatase methylesterase 1 (Homo sapiens) (UniProt Q9Y570).
14.7

----------
biological target: Protein phosphatase methylesterase 1 (Homo sapiens) (UniProt Q9Y570); assay: PME-1 inhibitors via competitive probe labeling, primary screen, biochemical, fluorescence polarization, FP-Rh probe, HTS (AID 2130); details: recombinant PME-1, FP-Rh probe fluorescence polarization; at 5.9 µM;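 note: competitive labeling of PME-1 active site by serine hydrolase directed probe; 0% = PME-1 with DMSO and 100% = wells lacking PME-1 enzyme; inhibitors block probe labeling so polarization falls and inhibition rises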
Hit rate of the full screen: of about 320,000 compounds, about 1,700 (0.53%) were called active.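 The calls were made as follows: active = inhibition above the campaign mean of all compounds plus 3 SD (cut at about 26% in these data); inactive = the rest.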 What follows is part of a selection rich in actives, with near analogues and random picks from the rest.
Your response should consist of one outcome taken from 1.0 for active, 0.0 for inactive

Consider the worked cases shown below.
| COMPOUND | CLASS_NAME |
| --- | --- |
| CCOC(=O)c1c(N)sc(C(C)=O)c1C | 0.0 |
| COC(=O)c1sc(=S)n(-c2ccc(Cl)cc2)c1C | 0.0 |
| COc1ccc(/C=N/Nc2ncnc3sc4c(c23)CCCC4)cc1O | 1.0 |
| CC(=O)c1c(C)n(-c2ccc(N(C)C)cc2)c2ccc(OCC(N)=O)cc12 | 1.0 |
| COc1ccc(C(=O)OC(C)C(=O)NC2CCCC2)cc1S(=O)(=O)N1CCOCC1 (stereo unspecified) | 0.0 |

Next up:
Please indicate how the test categorized CC(=O)c1c(C)n(-c2ccc(C)cc2)c2ccc(O)cc12 .
0.0
